Data provenance: PubChem BioAssay (NCI)

List of growth values.
system: OVCAR-4 ovarian; assay: NCI-60 one-dose screen, 48 h (100 = growth as untreated, 0 = no growth, -100 = all killed); conditions: 10 µM unless noted
About 83,000 compounds went through this panel and 20% of them were active in at least one assay; those are over-represented in the sample as a whole.

compound: Cc1[nH]c(/C=C2\C(=O)Nc3ccc(F)cc32)c(C)c1C(=O)NC[C@H](O)CN1CCOCC1
growth, %: 50.6

compound: C=CCC(=O)N[C@H](/C=C/C(=O)O)Cc1ccc(-c2cc(Cl)cc(Cl)c2)cc1
growth, %: 98.6

compound: O=C(Cc1ccc(-c2ccc(OCCN3CCOCC3)cc2)cn1)NCc1ccccc1
growth, %: 47.9

compound: CC(C)(O)CC(=O)NCCn1ccc2ncnc(Nc3ccc(Oc4cccc(C(F)(F)F)c4)c(Cl)c3)c21
growth, %: 25.6

compound: COc1ccc(-c2cc3c(oc2=O)-c2ccccc2OC3OC(C)=O)cc1 (centres undefined)
growth, %: 90.7

compound: COc1ccc(C2CC(=O)c3c(O)c(OC)c(OC)c(OC)c3O2)c(O)c1 (centres undefined)
growth, %: 48.9

compound: CC/C(=C(\c1ccc(OCCN2CCCCCCC2)cc1)c1ccc(OC(=O)C2CCCCC2)cc1)c1ccc(Cl)cc1
growth, %: 108

compound: COc1cc2c(Oc3ccc(NC(=O)C4(C(=O)Nc5ccc(F)cc5)CC4)cc3F)ccnc2cc1OCCCN1CCOCC1
growth, %: 32.1

compound: CN1CCN(c2ccc(C(=O)Nc3n[nH]c4ccc(Cc5cc(F)cc(F)c5)cc34)c(NC3CCOCC3)c2)CC1
growth, %: -6.27
